# Test system: Staphylococcus aureus
# Method description: Antibacterial activity against Staphylococcus aureus assessed as inhibition of bacterial growth measured after 24 hrs
# Type: functional

{"columns": ["Compound", "MIC / µg/mL"],
 "data": [
  ["CC(C)=CCc1c(O)ccc(C(=O)[C@H]2[C@@H](c3c(O)cc(-c4cc5ccc(O)cc5o4)cc3O)C=C(C)C[C@@H]2c2ccc(O)cc2O)c1O [CHALCOMORACIN]", 4],
  ["Oc1cc(Cl)ccc1Oc1ccc(Cl)cc1Cl [TRICLOSAN]", 0.016],
  ["O=C(c1ccc(O)cc1)N1CCc2c(n(Cc3ccc(O)cc3)c3ccccc23)C1", 0.5],
  ["O=C(c1ccc(Cl)cc1O)N1CCc2c(n(Cc3ccc(O)cc3)c3ccccc23)C1", 1],
  ["Cc1ccc(C(=O)N2CCc3c(n(Cc4ccc(O)cc4)c4ccccc34)C2)c(O)c1", 1],
  ["CC(C)=CCc1c(O)cc(-c2cc3ccc(O)cc3o2)cc1O [MORACIN C]", 32]
]}

---

# Study target: Enoyl-[acyl-carrier-protein] reductase [NADPH] FabI (Staphylococcus aureus)
# Sequence (Q6GI75 whole entry): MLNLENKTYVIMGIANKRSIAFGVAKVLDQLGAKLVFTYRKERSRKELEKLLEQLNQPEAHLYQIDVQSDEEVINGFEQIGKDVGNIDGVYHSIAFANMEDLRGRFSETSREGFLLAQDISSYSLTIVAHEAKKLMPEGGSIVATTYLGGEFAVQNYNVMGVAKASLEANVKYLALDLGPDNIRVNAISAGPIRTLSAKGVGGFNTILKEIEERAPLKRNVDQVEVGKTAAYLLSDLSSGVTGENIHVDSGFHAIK
# Method description: Inhibition of Staphylococcus aureus FabI assessed as inhibition of bacterial growth by measuring the NADH consumption rate at 20 mins
pIC50: −log10 of the molar value.

{"columns": ["Substance smiles", "pIC50"],
 "data": [
  ["Cc1c(CN(C)C(=O)/C=C/c2cnc3c(c2)CCC(=O)N3)oc2ccccc12", 7.85]
]}

---

# Study target: Enoyl-[acyl-carrier-protein] reductase [NADPH] FabI (Staphylococcus aureus, UniProt Q6GI75)
# Method description: Inhibition of Staphylococcus aureus FabI in the presence of NADH using crotonyl CoA as substrate by measuring NADH consumption rate
The reader will find reported log10 IC50 values listed item by item below.
Endpoint label: log10 IC50 (log10 of the value in µM)

{"columns": ["Substance smiles", "Endpoint label", "Assay result"],
 "data": [
  ["Cc1ccc(Oc2coc(COc3ccccc3)cc2=O)c(C)c1", "log10 IC50", 2.58],
  ["COc1ccc(-c2cn(Cc3ccc(C)cc3)cn2)cc1", "log10 IC50", -0.60],
  ["CC(C)CCCC/C=C\\CCCCCCCC(=O)O", "log10 IC50", 1.21],
  ["Cc1ccc(Oc2cn(C)c(COc3ccccc3)cc2=O)c(C)c1", "log10 IC50", 1.90],
  ["Cc1ccc(Cn2cnc(-c3ccsc3)c2)cc1", "log10 IC50", -0.44],
  ["Cc1c(CN(C)C(=O)/C=C/c2cnc3c(c2)CCC(=O)N3)c2ccccc2n1C", "log10 IC50", -0.89]
]}

---

# Study target: Enoyl-[acyl-carrier-protein] reductase [NADH] FabI (Escherichia coli K-12, UniProt P0AEK4)
# Sequence (P0AEK4 whole entry): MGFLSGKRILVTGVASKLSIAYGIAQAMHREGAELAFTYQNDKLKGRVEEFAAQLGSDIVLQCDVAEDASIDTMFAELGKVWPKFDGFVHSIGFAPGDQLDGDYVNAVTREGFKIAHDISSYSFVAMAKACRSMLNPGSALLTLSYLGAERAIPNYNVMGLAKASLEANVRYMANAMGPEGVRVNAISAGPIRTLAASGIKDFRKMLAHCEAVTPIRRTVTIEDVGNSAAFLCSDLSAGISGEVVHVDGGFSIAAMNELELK
# Method description: Inhibition of Escherichia coli DH5alpha FabI in the presence of NADH using crotonyl CoA as substrate by measuring NADH consumption rate

{"columns": ["Compound", "IC50"],
 "data": [
  ["Cc1cccc(Cl)c1Cc1c(Cl)n(Cc2cccs2)ccc1=O", "400 nM"],
  ["Cc1cccc(Cl)c1Cc1c(Cl)n(Cc2cccc(Cl)c2)ccc1=O", "340 nM"],
  ["CC1CC(=O)c2c(cc3c(-c4c(O)cc(O)c5c(O)c6c(cc45)OC(C)CC6=O)c(O)cc(O)c3c2O)O1 (centres undefined)", "1800 nM"],
  ["CCc1cc(O)c(Oc2ccc(C(N)=O)cc2F)cc1F", "58 nM"]
]}

---

# Method description: Selectivity index, ratio of CC50 for african green monkey Vero cells to CC50 for human HepG2 cells
# Type: toxicity
# Condition context: Vero cells and HepG2 cells, read-out: Selectivity Index

{"columns": ["Molecule", "selectivity ratio"],
 "data": [
  ["Cc1ccc(C2=NCC(c3ccc(Oc4ccccc4)c(O)c3)C2)cc1 (stereo unspecified)", "> 10"]
]}

---

# Study target: Enoyl-[acyl-carrier-protein] reductase [NADPH] FabI (Staphylococcus aureus, UniProt Q6GI75)
# Sequence (Q6GI75 whole entry): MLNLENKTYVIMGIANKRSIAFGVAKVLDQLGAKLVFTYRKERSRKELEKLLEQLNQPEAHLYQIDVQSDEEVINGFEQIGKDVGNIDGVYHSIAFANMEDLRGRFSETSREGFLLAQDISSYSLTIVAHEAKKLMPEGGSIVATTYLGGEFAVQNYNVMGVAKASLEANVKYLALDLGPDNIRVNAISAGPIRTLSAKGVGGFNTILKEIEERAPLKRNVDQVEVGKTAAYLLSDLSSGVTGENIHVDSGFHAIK
# Method description: Inhibition of Staphylococcus aureus ATCC 29213 FabI in the presence of NADH using crotonyl CoA as substrate by measuring NADH consumption rate
pIC50: −log10 of the molar value.
Classification field: t = pIC50 at or over 6; f = pIC50 under 6.

{"columns": ["Compound", "Class"],
 "data": [
  ["CN1C(=O)[C@@H](c2cc(Cl)c(O)c(Cl)c2)NC(=O)[C@@H]2NC(=O)[C@@H](c3cc(Cl)c(O)c(Cl)c3)NC(=O)[C@H](NC(=O)C(=O)c3cc(Cl)c(O)c(Cl)c3)Cc3cc4ccc(cc4[nH]3)-c3cc2cc(c3O)Oc2ccc(cc2)C[C@H]1C(=O)N[C@@H](C(=O)O)c1ccc(O)cc1", "t"],
  ["CN1C(=O)[C@@H](c2cc(Cl)c(O)c(Cl)c2)NC(=O)[C@@H]2NC(=O)[C@@H](c3cc(Cl)c(O)c(Cl)c3)NC(=O)[C@H](NC(=O)C(=O)c3cc(Cl)c(O)c(Cl)c3)Cc3c[nH]c4c(cccc34)-c3cc2cc(c3O)Oc2ccc(cc2)C[C@H]1C(=O)N[C@@H](C(=O)O)c1ccc(O)cc1 [CHLOROPEPTIN]", "t"],
  ["Cc1cccc(Cl)c1Cc1c(Cl)n(Cc2cccc(Cl)c2)ccc1=O", "t"],
  ["Cc1cccc(Cl)c1Cc1c(Cl)n(Cc2cccs2)ccc1=O", "t"],
  ["CC1CC(=O)c2c(cc3c(-c4c(O)cc(O)c5c(O)c6c(cc45)OC(C)CC6=O)c(O)cc(O)c3c2O)O1 (stereo unspecified) [CEPHALOCHROMIN]", "f"]
]}
